molecular target: SIK2 (Homo sapiens, UniProt Q9H0K1); experiment: SIK2 Enzymatic Assay High Version 2 (High ATP); format: biochemical; settings: enzyme 6 nM, 6 mM ATP and 400 μM HDAC5tide (each 2× final concentration); 30 minutes pre-incubation, 2 hours; ADP-Glo Max luminescence; read-out: SIK2 high ATP IC50 (μM) (Test Example 2)
Sequence (Q9H0K1 whole entry, species assumed): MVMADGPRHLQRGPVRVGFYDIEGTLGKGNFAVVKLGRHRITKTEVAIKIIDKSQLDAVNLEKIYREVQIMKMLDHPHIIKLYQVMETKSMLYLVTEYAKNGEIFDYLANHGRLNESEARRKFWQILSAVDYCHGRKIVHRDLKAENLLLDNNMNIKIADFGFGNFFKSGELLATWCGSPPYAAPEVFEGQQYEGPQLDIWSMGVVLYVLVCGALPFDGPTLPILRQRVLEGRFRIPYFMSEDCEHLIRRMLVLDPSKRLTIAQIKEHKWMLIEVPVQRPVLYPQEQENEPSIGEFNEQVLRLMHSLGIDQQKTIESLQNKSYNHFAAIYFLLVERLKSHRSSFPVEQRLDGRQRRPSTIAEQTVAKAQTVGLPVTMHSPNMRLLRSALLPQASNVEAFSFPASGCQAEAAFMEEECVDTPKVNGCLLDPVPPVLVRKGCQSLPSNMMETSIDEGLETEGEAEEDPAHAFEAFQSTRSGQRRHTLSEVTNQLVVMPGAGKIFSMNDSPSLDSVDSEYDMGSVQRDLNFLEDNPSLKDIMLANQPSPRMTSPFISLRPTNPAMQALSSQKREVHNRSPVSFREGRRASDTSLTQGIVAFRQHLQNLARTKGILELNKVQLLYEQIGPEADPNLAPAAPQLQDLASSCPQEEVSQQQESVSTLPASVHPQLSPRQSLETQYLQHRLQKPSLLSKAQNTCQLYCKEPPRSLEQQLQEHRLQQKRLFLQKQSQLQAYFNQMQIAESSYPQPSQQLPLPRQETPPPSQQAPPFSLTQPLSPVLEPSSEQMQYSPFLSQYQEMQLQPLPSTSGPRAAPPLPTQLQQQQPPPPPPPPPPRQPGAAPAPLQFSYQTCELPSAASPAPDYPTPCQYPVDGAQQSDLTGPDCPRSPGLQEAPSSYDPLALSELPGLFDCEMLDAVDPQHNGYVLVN
The threshold is 0.04 µM. Values of IC50 beneath it are tagged Yes; values meeting or exceeding it are tagged No.

stdin: I'd appreciate it if you could check whether Cc1cc(-c2ccn3nc(NC(=O)C4CC4)cc3c2)c(OCC2(C#N)CCNC2)cn1 (single isomer, unassigned) has IC50 smaller than 0.04 µM.
stdout: Yes

stdin: Identify whether the compound `Cc1cc(Nc2cc3cc(-c4cc(OCC(F)F)ncc4OCC(C)(C)C#N)ccn3n2)nn(C)c1=O` records IC50 below 0.04 µM.
stdout: No

stdin: Find out if reported IC50 for `Cc1cnc(OC[C@@H]2CNCCO2)c(-c2ccn3nc(NC(=O)C4CC4)cc3c2)c1` is less than 0.04 µM
stdout: No

stdin: Just wondering, is IC50 of `Cc1cc(-c2ccn3nc(Nc4cnn(C(C)C)c4)cc3c2)c(OC[C@@H]2CNCCO2)cn1` below 0.04 µM?
stdout: Yes

stdin: Just wondering, is IC50 of `Cc1cc(-c2ccn3nc(Nc4cnccn4)cc3c2)c(OC[C@H]2CNCCO2)cn1` below 0.04 µM?
stdout: Yes

Reference source for all entries: patent US20240158392A1
